- Test target: T1, HLA-A*0201 molecule on human T2 cells (human)
- T1 construct: read out with anti-HLA-A2 antibody BB7.2-PE; also called HLA-A2
- Assay notes: T2 cells expressing HLA-A*0201, anti-HLA-A2-PE, FACS
Assay metric: mean relative fluorescence intensity at 3.125 µM peptide

FMVEDETVL (Fragment of human EZH2) [EZH2-H] :: 0.7 % of HIV peptide

I'm hoping you can list mean relative fluorescence intensity at 3.125 µM peptide for every binder here, please.
1. LLLSAALSV [CHI3L1B]
2. FMLGEFLKL [BIRC5-B1]

result:
["23.9 % of HIV peptide", "22.3 % of HIV peptide"]

query: Supply measured mean relative fluorescence intensity at 3.125 µM peptide of SMFRVLIGT (Fragment of human EZH2) [EZH2-H2] in your reply.
result: 0 % of HIV peptide
